We begin with a simple list: items and their reported Ki.
Molecular target: Gamma-aminobutyric acid receptor subunit alpha-1/beta-3/gamma-2 (Homo sapiens, UniProt P14867+P18507+P28472)
Sequence (P14867 whole entry, one chain of several): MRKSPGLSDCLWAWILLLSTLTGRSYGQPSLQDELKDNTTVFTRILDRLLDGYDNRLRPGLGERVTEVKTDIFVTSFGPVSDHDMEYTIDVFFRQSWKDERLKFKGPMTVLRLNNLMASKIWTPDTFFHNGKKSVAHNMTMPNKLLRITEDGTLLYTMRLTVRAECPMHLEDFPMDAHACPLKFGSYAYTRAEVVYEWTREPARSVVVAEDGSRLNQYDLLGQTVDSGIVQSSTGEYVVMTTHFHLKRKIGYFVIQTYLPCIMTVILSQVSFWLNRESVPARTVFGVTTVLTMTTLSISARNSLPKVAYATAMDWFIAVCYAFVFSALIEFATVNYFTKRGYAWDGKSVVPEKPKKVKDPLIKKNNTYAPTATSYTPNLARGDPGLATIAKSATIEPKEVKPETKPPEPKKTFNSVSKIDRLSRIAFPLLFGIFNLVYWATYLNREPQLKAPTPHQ
Experiment: Displacement of [3H]flunitrazepam from human recombinant GABAA alpha-1-beta-3-gamma-2 receptor expressed in HEK cells by liquid scintillation counting

Compound	Ki
CC(OC(=O)c1cc2c(cn1)[nH]c1ccccc12)C(Cl)(Cl)Cl (configuration not stated)	2000 nM
CCC(OC(=O)c1cc2c(cn1)[nH]c1ccccc12)C(F)(F)F (configuration not stated)	1000 nM

====

Biological target: GABA-A receptor; alpha-2/beta-3/gamma-2 (Homo sapiens, UniProt P47869+P18507+P28472)
Sequence (P47869 whole entry, one chain of several): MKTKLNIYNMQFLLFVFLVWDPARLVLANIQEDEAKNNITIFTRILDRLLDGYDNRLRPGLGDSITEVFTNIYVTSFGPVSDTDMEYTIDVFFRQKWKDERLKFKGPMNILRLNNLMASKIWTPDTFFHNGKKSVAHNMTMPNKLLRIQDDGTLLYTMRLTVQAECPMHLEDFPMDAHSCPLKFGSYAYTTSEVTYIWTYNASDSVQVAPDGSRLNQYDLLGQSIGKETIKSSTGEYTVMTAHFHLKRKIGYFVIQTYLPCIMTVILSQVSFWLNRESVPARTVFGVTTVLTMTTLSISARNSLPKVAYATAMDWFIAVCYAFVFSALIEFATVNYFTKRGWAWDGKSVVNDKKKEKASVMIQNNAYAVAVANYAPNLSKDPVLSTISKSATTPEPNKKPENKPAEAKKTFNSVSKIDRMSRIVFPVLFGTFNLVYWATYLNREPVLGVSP
Assay: Displacement of [3H]flunitrazepam from human recombinant GABAA alpha-2-beta-3-gamma-2 receptor expressed in HEK cells by liquid scintillation counting

Molecule	Ki
CC(OC(=O)c1cc2c(cn1)[nH]c1ccccc12)C(Cl)(Cl)Cl (centres undefined)	2 µM
CCC(OC(=O)c1cc2c(cn1)[nH]c1ccccc12)C(F)(F)F (centres undefined)	1 µM
c1ccc(COc2cc3c4ccccc4nc-3c[nH]2)cc1	3 µM
CC(OC(=O)c1cc2c(cn1)[nH]c1ccccc12)c1ccccc1 (centres undefined)	1 µM

====

Target: Gamma-aminobutyric acid receptor subunit alpha-3/beta-3/gamma-2 (Homo sapiens, UniProt P34903+P18507+P28472)
Sequence (P34903 whole entry): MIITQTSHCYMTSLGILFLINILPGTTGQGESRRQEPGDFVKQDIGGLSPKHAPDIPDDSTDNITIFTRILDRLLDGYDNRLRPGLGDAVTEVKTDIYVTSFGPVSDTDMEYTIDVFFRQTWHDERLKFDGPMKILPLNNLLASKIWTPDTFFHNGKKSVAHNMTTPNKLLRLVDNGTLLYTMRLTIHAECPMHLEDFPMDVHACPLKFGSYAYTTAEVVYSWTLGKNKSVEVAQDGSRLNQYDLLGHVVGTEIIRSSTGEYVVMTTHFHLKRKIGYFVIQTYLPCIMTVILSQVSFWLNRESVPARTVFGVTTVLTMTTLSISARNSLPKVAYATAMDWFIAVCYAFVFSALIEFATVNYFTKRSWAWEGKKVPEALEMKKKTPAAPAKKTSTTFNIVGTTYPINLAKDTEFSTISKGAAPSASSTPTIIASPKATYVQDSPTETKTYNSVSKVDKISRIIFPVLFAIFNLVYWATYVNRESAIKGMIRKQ
Sequence (P18507 whole entry): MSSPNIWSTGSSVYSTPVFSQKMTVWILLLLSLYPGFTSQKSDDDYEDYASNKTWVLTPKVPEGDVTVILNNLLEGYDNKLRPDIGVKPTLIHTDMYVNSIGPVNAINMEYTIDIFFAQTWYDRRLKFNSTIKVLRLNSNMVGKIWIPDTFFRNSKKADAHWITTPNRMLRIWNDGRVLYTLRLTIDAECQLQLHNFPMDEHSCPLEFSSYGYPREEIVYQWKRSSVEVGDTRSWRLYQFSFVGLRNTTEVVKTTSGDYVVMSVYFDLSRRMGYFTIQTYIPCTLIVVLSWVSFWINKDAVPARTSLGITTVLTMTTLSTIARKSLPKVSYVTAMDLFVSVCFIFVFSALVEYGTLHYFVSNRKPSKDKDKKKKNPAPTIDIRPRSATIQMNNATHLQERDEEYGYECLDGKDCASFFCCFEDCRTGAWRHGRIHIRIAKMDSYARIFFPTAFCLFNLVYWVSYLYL
Sequence (P28472 whole entry): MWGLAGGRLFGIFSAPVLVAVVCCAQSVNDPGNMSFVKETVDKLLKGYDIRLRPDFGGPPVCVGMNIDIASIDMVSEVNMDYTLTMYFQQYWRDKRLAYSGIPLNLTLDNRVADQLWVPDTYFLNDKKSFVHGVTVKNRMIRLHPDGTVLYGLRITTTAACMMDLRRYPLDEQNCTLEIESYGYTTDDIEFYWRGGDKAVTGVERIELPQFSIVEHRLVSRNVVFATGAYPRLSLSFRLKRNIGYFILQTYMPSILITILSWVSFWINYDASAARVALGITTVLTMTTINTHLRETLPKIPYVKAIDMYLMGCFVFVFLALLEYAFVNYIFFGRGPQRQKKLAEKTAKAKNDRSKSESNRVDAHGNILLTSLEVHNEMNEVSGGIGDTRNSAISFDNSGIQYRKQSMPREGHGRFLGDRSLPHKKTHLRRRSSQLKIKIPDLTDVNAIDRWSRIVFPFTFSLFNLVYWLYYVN
Assay: Displacement of [3H]flunitrazepam from human recombinant GABAA alpha-3-beta-3-gamma-2 receptor expressed in HEK cells by liquid scintillation counting
Parameter Ki: see the listing below.

Compound	Reading unit	Ki
CC(OC(=O)c1cc2c(cn1)[nH]c1ccccc12)c1ccccc1 (centres undefined)	nM	1000
CC(OC(=O)c1cc2c(cn1)[nH]c1ccccc12)C(Cl)(Cl)Cl (centres undefined)	nM	2000
CCC(OC(=O)c1cc2c(cn1)[nH]c1ccccc12)C(F)(F)F (centres undefined)	nM	1000
c1ccc(COc2cc3c4ccccc4nc-3c[nH]2)cc1	nM	3000
